B1: ARL6IP1 (parent)
chain: YLDPSVLSGVSCFVMFLCLADYLV

Variants of: B1
Experiment: protein stability index of a GFP-peptide fusion (GPS, HEK-293T) (PSI 1-6); higher = more stable;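 also: lentivirally expressed fusions sorted by FACS into six bins by GFP to DsRed ratio, PSI derived from sequencing read proportions per bin multiplied by bin number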
Conditions: c terminus: a fixed tail appended

{"sequence-code": "YLDPSVLSGVSCFVMFFCLADYLV [L17F]", "protein stability index": 2.82}
{"sequence-code": "YLDPSVLSGKSCFVMFLCLADYLV [V10K]", "protein stability index": 2.46}
{"sequence-code": "YLNPSVLSGVSCFVMFLCLADYLV [D3N]", "protein stability index": 3.7}
{"sequence-code": "YLDPSVLSGVSCFVMFLHLADYLV [C18H]", "protein stability index": 2.85}
{"sequence-code": "YLDPGVLSGVSCFVMFLCLADYLV [S5G]", "protein stability index": 3.63}
{"sequence-code": "VLDPSVLSGVSCFVMFLCLADYLV [Y1V]", "protein stability index": 2.9}
{"sequence-code": "YLDPSVLSGVSCFVMFLCLANYLV [D21N]", "protein stability index": 2.7}
{"sequence-code": "YNDPSVLSGVSCFVMFLCLADYLV [L2N]", "protein stability index": 2.5}
{"sequence-code": "YLDPSVLSGVSCFVMFHCLADYLV [L17H]", "protein stability index": 2.4}
{"sequence-code": "DLDPSVLSGVSCFVMFLCLADYLV [Y1D]", "protein stability index": 2.61}
{"sequence-code": "YLDPSVLSGVSCFVMFLRLADYLV [C18R]", "protein stability index": 2.65}
{"sequence-code": "YLDPSVLSGVSAFVMFLCLADYLV [C12A]", "protein stability index": 3.07}
{"sequence-code": "YLDPSVLSGVSCFVMFLCLAQYLV [D21Q]", "protein stability index": 2.58}
{"sequence-code": "YLDPSVLSFVSCFVMFLCLADYLV [G9F]", "protein stability index": 3.27}
{"sequence-code": "YLDPSVLSGVSCFVMFLCTADYLV [L19T]", "protein stability index": 2.74}
{"sequence-code": "YLDPSVLSGVSCIVMFLCLADYLV [F13I]", "protein stability index": 2.81}
{"sequence-code": "YLDPSNLSGVSCFVMFLCLADYLV [V6N]", "protein stability index": 3.08}
{"sequence-code": "YLDPSVLSGVSYFVMFLCLADYLV [C12Y]", "protein stability index": 2.47}
{"sequence-code": "YLDPSVLSGVECFVMFLCLADYLV [S11E]", "protein stability index": 4.25}
{"sequence-code": "YLDPSVLSGVSCDVMFLCLADYLV [F13D]", "protein stability index": 2.64}
{"sequence-code": "YLDPSVLSGVSCFVMFLCFADYLV [L19F]", "protein stability index": 2.56}
{"sequence-code": "YLDPSVLSGVSCFVLFLCLADYLV [M15L]", "protein stability index": 2.76}
{"sequence-code": "YLDPSVLSGVSCFVCFLCLADYLV [M15C]", "protein stability index": 3.3}
{"sequence-code": "YLDPSVLSTVSCFVMFLCLADYLV [G9T]", "protein stability index": 3.03}
{"sequence-code": "YLDPSVASGVSCFVMFLCLADYLV [L7A]", "protein stability index": 3.11}
{"sequence-code": "YLDPSVLSGVSCWVMFLCLADYLV [F13W]", "protein stability index": 3.83}
{"sequence-code": "YLDPSVLSGVSCFVMPLCLADYLV [F16P]", "protein stability index": 2.64}
{"sequence-code": "YLDPSVLSGPSCFVMFLCLADYLV [V10P]", "protein stability index": 3.06}
{"sequence-code": "YLDPSVLSGVSCFVMFLCLADYLM [V24M]", "protein stability index": 3.77}
{"sequence-code": "YLDVSVLSGVSCFVMFLCLADYLV [P4V]", "protein stability index": 3.33}
{"sequence-code": "YLDPSVLSGVSCFVMFLCLADYIV [L23I]", "protein stability index": 4.16}
{"sequence-code": "YLDPSVLSGVSCFVMFLCHADYLV [L19H]", "protein stability index": 3.03}
{"sequence-code": "YLDPSVLSGTSCFVMFLCLADYLV [V10T]", "protein stability index": 1.56}
{"sequence-code": "YRDPSVLSGVSCFVMFLCLADYLV [L2R]", "protein stability index": 2.5}
{"sequence-code": "YLDPSVLSGVSCFVMFLCLADYGV [L23G]", "protein stability index": 2.59}
{"sequence-code": "YLDPSQLSGVSCFVMFLCLADYLV [V6Q]", "protein stability index": 2.64}
{"sequence-code": "YLDPSVLSGVSCFVMGLCLADYLV [F16G]", "protein stability index": 2.14}
{"sequence-code": "YLDPSVLSGVSCFVMFLCSADYLV [L19S]", "protein stability index": 3.89}
{"sequence-code": "YLDPSVLSGDSCFVMFLCLADYLV [V10D]", "protein stability index": 2.93}
{"sequence-code": "YLDPSVLSYVSCFVMFLCLADYLV [G9Y]", "protein stability index": 2.81}
{"sequence-code": "YLDPSVLSGVSCQVMFLCLADYLV [F13Q]", "protein stability index": 3.58}
{"sequence-code": "YLDPSVLSGVSCFVMFLCLADYYV [L23Y]", "protein stability index": 2.27}
{"sequence-code": "YLDPSVCSGVSCFVMFLCLADYLV [L7C]", "protein stability index": 1.88}
{"sequence-code": "YLDPSVLSGVSCFVMFLTLADYLV [C18T]", "protein stability index": 3.26}
{"sequence-code": "YLDPSVLSGVSCFVMFDCLADYLV [L17D]", "protein stability index": 2.49}
{"sequence-code": "YLQPSVLSGVSCFVMFLCLADYLV [D3Q]", "protein stability index": 3.57}
